Provenance of the data: ChEMBL document CHEMBL1138326

Would you mind telling me the reported residual activity of each entry?
- TARGET OR TEST SYSTEM: Prostaglandin G/H synthase 1 (Homo sapiens)
- EXPERIMENT: Inhibition of COX1 in human whole blood assessed as effect on A23187-induced thromboxane B2 production at 1 uM relative to control; values are per cent of control
Give bare numbers, in %.

A selection of reference data follows.
Query :: Specify measured residual activity for COc1ccc2c(c1)c(CCN)c(C)n2C(=O)c1ccc(Cl)cc1 .
Result :: 100

Query :: Specify measured residual activity for COc1ccc2c(c1)c(CCO)c(C)n2C(=O)c1ccc(Cl)cc1 .
Result :: 76

Query :: Specify measured residual activity for Cc1c(CC(=O)NCCCO)c2cc(O)ccc2n1C(=O)c1ccc(Cl)cc1 .
Result :: 83

Query :: Specify measured residual activity for COc1ccc2c(c1)c(CCNC(=O)NCCCO[N+](=O)[O-])c(C)n2C(=O)c1ccc(Cl)cc1 .
Result :: 93

Query :: Specify measured residual activity for COc1ccc2c(c1)c(CC(=O)NC(CO[N+](=O)[O-])(CO[N+](=O)[O-])CO[N+](=O)[O-])c(C)n2C(=O)c1ccc(Cl)cc1 .
Result :: 50

Query :: Specify measured residual activity for COc1ccc2c(c1)c(CC(=O)NCC(C)(C)CO[N+](=O)[O-])c(C)n2C(=O)c1ccc(Cl)cc1 .
Result :: 78

Query :: Specify measured residual activity for COc1ccc2c(c1)c(CCOC(=O)NS(=O)(=O)NCCCO[N+](=O)[O-])c(C)n2C(=O)c1ccc(Cl)cc1 .
Result :: 100

Query :: Specify measured residual activity for COc1ccc2c(c1)c(CCNS(=O)(=O)c1ccc(CO[N+](=O)[O-])cc1)c(C)n2C(=O)c1ccc(Cl)cc1 .
Result :: 68

Now let's try a different one.
Query :: Specify measured residual activity for COc1ccc2c(c1)c(CCO[N+](=O)[O-])c(C)n2C(=O)c1ccc(Cl)cc1 .
Result :: 69

---

- TARGET OR TEST SYSTEM: Prostaglandin G/H synthase 1 (Homo sapiens, UniProt P23219)
- Sequence (P23219 whole entry): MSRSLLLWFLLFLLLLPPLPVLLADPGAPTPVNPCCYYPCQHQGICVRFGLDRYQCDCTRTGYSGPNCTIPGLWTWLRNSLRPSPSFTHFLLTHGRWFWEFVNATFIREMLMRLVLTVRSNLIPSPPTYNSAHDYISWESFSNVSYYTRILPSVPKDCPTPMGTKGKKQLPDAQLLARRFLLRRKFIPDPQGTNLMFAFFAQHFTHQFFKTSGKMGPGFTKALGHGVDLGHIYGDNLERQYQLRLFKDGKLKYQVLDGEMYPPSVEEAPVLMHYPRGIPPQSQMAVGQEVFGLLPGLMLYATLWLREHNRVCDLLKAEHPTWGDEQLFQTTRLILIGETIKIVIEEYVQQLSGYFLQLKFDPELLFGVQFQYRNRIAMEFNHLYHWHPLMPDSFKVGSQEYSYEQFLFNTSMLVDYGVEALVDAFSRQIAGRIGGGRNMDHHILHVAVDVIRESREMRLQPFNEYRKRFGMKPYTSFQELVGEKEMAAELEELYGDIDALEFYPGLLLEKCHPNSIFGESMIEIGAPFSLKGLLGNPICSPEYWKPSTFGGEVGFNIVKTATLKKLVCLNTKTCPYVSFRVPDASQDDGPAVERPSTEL
- EXPERIMENT: Inhibition of COX1 in human whole blood assessed as effect on A23187-induced thromboxane B2 production at 10 uM relative to control; values are per cent of control
ENDPOINT LABEL: residual activity (%)
One number for each entry, in %.

A selection of reference data follows.
Query :: Specify measured residual activity for COc1ccc2c(c1)c(CCNS(=O)(=O)c1ccc(CO[N+](=O)[O-])cc1)c(C)n2C(=O)c1ccc(Cl)cc1 .
Result :: 23

Query :: Specify measured residual activity for COc1ccc2c(c1)c(CCO)c(C)n2C(=O)c1ccc(Cl)cc1 .
Result :: 16

Query :: Specify measured residual activity for COc1ccc2c(c1)c(CCOC(=O)NCCCO[N+](=O)[O-])c(C)n2C(=O)c1ccc(Cl)cc1 .
Result :: 74

Query :: Specify measured residual activity for COc1ccc2c(c1)c(CC(=O)NC(CO[N+](=O)[O-])(CO[N+](=O)[O-])CO[N+](=O)[O-])c(C)n2C(=O)c1ccc(Cl)cc1 .
Result :: 11

Query :: Specify measured residual activity for COc1ccc2c(c1)c(CCNS(=O)(=O)CCCO[N+](=O)[O-])c(C)n2C(=O)c1ccc(Cl)cc1 .
Result :: 57

Could you tell me residual activity for each of these compounds? They are listed below.
1. COc1ccc2c(c1)c(CC(=O)NOCCO)c(C)n2C(=O)c1ccc(Cl)cc1
2. Cc1c(CC(=O)NCCCO)c2cc(O)ccc2n1C(=O)c1ccc(Cl)cc1
3. COc1ccc2c(c1)c(CCNC(=O)NCCCO[N+](=O)[O-])c(C)n2C(=O)c1ccc(Cl)cc1
4. COc1cc2c(CC(=O)O)c(C)n(C(=O)c3ccc(Cl)cc3)c2cc1Cl
5. COc1ccc2c(c1)c(CCNS(=O)(=O)CCCO)c(C)n2C(=O)c1ccc(Cl)cc1

Result ::
1: 3; 2: 40; 3: 29; 4: 24; 5: 33

Could you tell me residual activity for each of these compounds? They are listed below.
1. Cc1c(CC(=O)O)c2cc(O)ccc2n1C(=O)c1ccc(Cl)cc1
2. COc1ccc2c(c1)c(CC(=O)NO)c(C)n2C(=O)c1ccc(Cl)cc1
3. COc1ccc2c(c1)c(CC(=O)NCCCO[N+](=O)[O-])c(C)n2C(=O)c1ccc(Cl)cc1
4. Cc1c(CC(=O)NCCCO[N+](=O)[O-])c2cc(OS(N)(=O)=O)ccc2n1C(=O)c1ccc(Cl)cc1

Result ::
1. 55
2. 29
3. 31
4. 92

Query :: Specify measured residual activity for COc1ccc2c(c1)c(CC(=O)NCCCCO)c(C)n2C(=O)c1ccc(Cl)cc1 .
Result :: 23

---

- TARGET OR TEST SYSTEM: Prostaglandin G/H synthase 1 (Homo sapiens)
- EXPERIMENT: Inhibition of COX1 in human whole blood assessed as effect on A23187-induced thromboxane B2 production at 3 uM relative to control; values are per cent of control
Would you mind telling me the reported residual activity of each entry?
One number for each entry, in %.

A selection of reference data follows.
Query :: Specify measured residual activity for COc1ccc2c(c1)c(CC(=O)NCC(C)(C)CO[N+](=O)[O-])c(C)n2C(=O)c1ccc(Cl)cc1 .
Result :: 45

Query :: Specify measured residual activity for COc1ccc2c(c1)c(CCO)c(C)n2C(=O)c1ccc(Cl)cc1 .
Result :: 18

Query :: Specify measured residual activity for COc1ccc2c(c1)c(CCNS(=O)(=O)CCCO[N+](=O)[O-])c(C)n2C(=O)c1ccc(Cl)cc1 .
Result :: 68

Query :: Specify measured residual activity for Cc1c(CC(=O)NCCCO[N+](=O)[O-])c2cc(O)ccc2n1C(=O)c1ccc(Cl)cc1 .
Result :: 74

Query :: Specify measured residual activity for COc1ccc2c(c1)c(CC(=O)NCCCCO)c(C)n2C(=O)c1ccc(Cl)cc1 .
Result :: 46

Could you tell me residual activity for each of these molecules? They are listed below.
1. COc1ccc2c(c1)c(CCNS(=O)(=O)CCCO)c(C)n2C(=O)c1ccc(Cl)cc1
2. COc1ccc2c(c1)c(CC(=O)NCCCO)c(C)n2C(=O)c1ccc(Cl)cc1
3. COc1cc2c(CC(=O)O)c(C)n(C(=O)c3ccc(Cl)cc3)c2cc1Cl
4. COc1ccc2c(c1)c(CC(=O)NC(CO[N+](=O)[O-])(CO[N+](=O)[O-])CO[N+](=O)[O-])c(C)n2C(=O)c1ccc(Cl)cc1

Result ::
51
46
41
16

---

- TARGET OR TEST SYSTEM: Prostaglandin G/H synthase 1 (Homo sapiens, UniProt P23219)
- EXPERIMENT: Inhibition of COX1 in human whole blood assessed as effect on A23187-induced thromboxane B2 production
ENDPOINT LABEL: pIC50
Numbers only, as −log10 of the molar value.

Query :: Specify measured pIC50 for COc1ccc2c(c1)c(CC(=O)NCCCO)c(C)n2C(=O)c1ccc(Cl)cc1 .
Result :: 5.48

Query :: Specify measured pIC50 for Cc1c(CC(=O)NCCCO[N+](=O)[O-])c2cc(O)ccc2n1C(=O)c1ccc(Cl)cc1 .
Result :: 5.33

Query :: Specify measured pIC50 for Cc1c(CC(=O)NCCCO)c2cc(O)ccc2n1C(=O)c1ccc(Cl)cc1 .
Result :: 5.27

Could you tell me pIC50 for each of these compounds? They are listed below.
1. COc1ccc2c(c1)c(CC(=O)NCCCO[N+](=O)[O-])c(C)n2C(=O)c1ccc(Cl)cc1
2. COc1ccc2c(c1)c(CCNS(=O)(=O)c1ccc(CO[N+](=O)[O-])cc1)c(C)n2C(=O)c1ccc(Cl)cc1
3. COc1cc2c(CC(=O)O)c(C)n(C(=O)c3ccc(Cl)cc3)c2cc1Cl
4. COc1ccc2c(c1)c(CCNS(=O)(=O)CCCO)c(C)n2C(=O)c1ccc(Cl)cc1
5. COc1ccc2c(c1)c(CC(=O)NOC(C)=O)c(C)n2C(=O)c1ccc(Cl)cc1
6. COc1ccc2c(c1)c(CC(=O)NO)c(C)n2C(=O)c1ccc(Cl)cc1 [OXAMETACIN]

Result ::
5.22
5.72
5.80
5.43
5.44
5.55

Could you tell me pIC50 for each of these compounds? They are listed below.
1. COc1ccc2c(c1)c(CCO)c(C)n2C(=O)c1ccc(Cl)cc1
2. COc1ccc2c(c1)c(CC(=O)NCC(C)(C)CO[N+](=O)[O-])c(C)n2C(=O)c1ccc(Cl)cc1

Result ::
1. 5.64
2. 5.59

---

- TARGET OR TEST SYSTEM: Prostaglandin G/H synthase 1 (Homo sapiens, UniProt P23219)
- EXPERIMENT: Inhibition of COX1 in human whole blood assessed as effect on A23187-induced thromboxane B2 production at 3 uM relative to control; values are per cent of control
ENDPOINT LABEL: residual activity (%)
Answers are plain numbers, in %.

A selection of reference data follows.
Query :: Recall the reported residual activity of COc1ccc2c(c1)c(CC(=O)NCCCO[N+](=O)[O-])c(C)n2C(=O)c1ccc(Cl)cc1 when tested on Prostaglandin G/H synthase 1 (Homo sapiens, UniProt P23219).
Result :: 65

Query :: Recall the reported residual activity of Cc1c(CC(=O)O)c2cc(O)ccc2n1C(=O)c1ccc(Cl)cc1 when tested on Prostaglandin G/H synthase 1 (Homo sapiens, UniProt P23219).
Result :: 80

Query :: Recall the reported residual activity of Cc1c(CC(=O)NCCCO)c2cc(O)ccc2n1C(=O)c1ccc(Cl)cc1 when tested on Prostaglandin G/H synthase 1 (Homo sapiens, UniProt P23219).
Result :: 58

Could you tell me residual activity for each of these compounds? They are listed below.
1. COc1ccc2c(c1)c(CC(=O)NOCCO)c(C)n2C(=O)c1ccc(Cl)cc1
2. COc1cc2c(CC(=O)NCCCO[N+](=O)[O-])c(C)n(C(=O)c3ccc(Cl)cc3)c2cc1Cl

Result ::
20
72
